The entries below are paired with their reported OD405 nm.
target-system: T1, recombinant human AXL extracellular domain, C-terminally His8-tagged (rhAXL-ECD) (human, UniProt P30530 26-451)
T1 construct: Made in CHO cells; also called (rh)AXL-ECD His8; human AXL ECD
T1 sequence: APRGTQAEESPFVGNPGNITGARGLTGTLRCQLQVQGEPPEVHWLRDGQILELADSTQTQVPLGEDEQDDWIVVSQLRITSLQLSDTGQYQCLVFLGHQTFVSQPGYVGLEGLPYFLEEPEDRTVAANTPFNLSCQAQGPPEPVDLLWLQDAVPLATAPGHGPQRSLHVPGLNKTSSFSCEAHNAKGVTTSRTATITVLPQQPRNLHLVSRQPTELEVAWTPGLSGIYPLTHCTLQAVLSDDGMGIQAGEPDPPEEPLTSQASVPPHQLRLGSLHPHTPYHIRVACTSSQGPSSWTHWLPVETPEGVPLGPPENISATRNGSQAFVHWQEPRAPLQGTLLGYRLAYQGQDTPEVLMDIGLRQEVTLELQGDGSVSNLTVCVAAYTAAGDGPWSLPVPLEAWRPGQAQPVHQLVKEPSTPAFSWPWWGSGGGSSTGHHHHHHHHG
assay-notes: ELISA, antigen coated at 5 µg/ml, mAb 10 µg/ml
Experimental: To evaluate the cross-reactivity of the mAb to other members of the TAM receptor tyrosine kinase subfamily, binding of the mAb to rhAXL-ECD, rhMER-ECD, rhTyro-3 and BSA (negative control) was measured by ELISA. 96-w half-area plates (Costar) were coated with 25 μl of rhAXL-ECD, rhMER-ECD, rhTyro-3 or BSA at 5 μg/ml in PBS and incubated overnight at 4° C. […] OD405 nm measurements were done using a microplate reader (Spectramax 340 PC, Molecular Devices).
Your answer should be a plain number; it is taken to be in OD405.

Here's what some known entries look like.
* F111-5E9 (antibody, V domains shown, also called F111-5E9-2; mAb 5E9) VH: QIQLVQSGPELKKPGETVKISCKASGYTFTKYGMNWVKQAPGKGLKWMGWINTYTGEPTYADDFKGRFAFSLETSASTAYLQINNLTTEDMVTYFCAKGGYYSNPIYPMDYWGQGTSVTVSS VL: DIQMTQTTSSLSASLGDRVTISCRASQDINNYLNWYQQKPDGTVKLLIYYISRLHSGVPSRFSGSGSGTDYSLTISNLELEDVATYFCQQGNTLPFTFGSGTKLEIK | 1.36
* F107-8D12 (antibody, V domains shown, also called F107-8D12-2; mAb 8D12) VH: QVQLQQPGAELVKPGASVQLSCKASGYTFISFWINWVKQRPGQGLEWMGNIFPGSSSTNYNEKFKSKATLTVDKSSSTAYMQLSSLTSEDSAVYFCARDYYGGSPDYWGQGTTLTVSS VL: DIVMSQSPSSLAVSAGERVTMSCKSSQSLLNTRTRKNYLAWYQQKPGQSPKLLIYWASTRESGVPDRFTGSGSGTDFTLTISSVQAEDLAVYYCKQSYNLWTFGGGTKLEIK | 2.59

Q) Would you kindly share the measured OD405 nm for F107-7H5 (antibody, V domains shown, also called F107-7H5-2; mAb 7H5) VH: QVQLQQPGAELVKPGASVKLSCKASGYTFTSYWINWVKQRPGQGLEWIGNIYPDSSSTNYNEKFKSKATLTVDKSSTTAYIQFSSLTSEDSAVYYCTRDTYGGSPDYWGQGTTLTVSS VL: DIVMSQSPSSLAVSAGEKVTMSCKSSQSLLNSRTRKIYLAWYQQKPGQSPKLLIYWASTRQSGVPDRFTGSGSGTDFTLTISSVQAEDLAVYYCKQSYNLWTFGGGTKLEIK ?
A) 2.4
